Ref: paper PMC3066540

target: 64′-OMT; construct: pET-21d, no vector-derived peptides, E. coli BL21(DE3), purified; subunit ca. 40 kDa, native ca. 63 kDa, dimer; experiment: [3H]methyl transfer assay, inhibition kinetics; details: competitive with AdoMet; varied substrate AdoMet, methyl acceptor norlaudanosoline; 30 °C

# smiles-repr, measured-on, unit-abbrev, Ki
measured = [
    ("Nc1ncnc2c1ncn2[C@@H]1O[C@H](CSCC[C@H](N)C(=O)O)[C@@H](O)[C@H]1O", "64′-OMT", "µM", 70),
]
